- TARGET_UNDER_TEST: Short transient receptor potential channel 4 (Mus musculus)
- Sequence (Q9QUQ5 whole entry): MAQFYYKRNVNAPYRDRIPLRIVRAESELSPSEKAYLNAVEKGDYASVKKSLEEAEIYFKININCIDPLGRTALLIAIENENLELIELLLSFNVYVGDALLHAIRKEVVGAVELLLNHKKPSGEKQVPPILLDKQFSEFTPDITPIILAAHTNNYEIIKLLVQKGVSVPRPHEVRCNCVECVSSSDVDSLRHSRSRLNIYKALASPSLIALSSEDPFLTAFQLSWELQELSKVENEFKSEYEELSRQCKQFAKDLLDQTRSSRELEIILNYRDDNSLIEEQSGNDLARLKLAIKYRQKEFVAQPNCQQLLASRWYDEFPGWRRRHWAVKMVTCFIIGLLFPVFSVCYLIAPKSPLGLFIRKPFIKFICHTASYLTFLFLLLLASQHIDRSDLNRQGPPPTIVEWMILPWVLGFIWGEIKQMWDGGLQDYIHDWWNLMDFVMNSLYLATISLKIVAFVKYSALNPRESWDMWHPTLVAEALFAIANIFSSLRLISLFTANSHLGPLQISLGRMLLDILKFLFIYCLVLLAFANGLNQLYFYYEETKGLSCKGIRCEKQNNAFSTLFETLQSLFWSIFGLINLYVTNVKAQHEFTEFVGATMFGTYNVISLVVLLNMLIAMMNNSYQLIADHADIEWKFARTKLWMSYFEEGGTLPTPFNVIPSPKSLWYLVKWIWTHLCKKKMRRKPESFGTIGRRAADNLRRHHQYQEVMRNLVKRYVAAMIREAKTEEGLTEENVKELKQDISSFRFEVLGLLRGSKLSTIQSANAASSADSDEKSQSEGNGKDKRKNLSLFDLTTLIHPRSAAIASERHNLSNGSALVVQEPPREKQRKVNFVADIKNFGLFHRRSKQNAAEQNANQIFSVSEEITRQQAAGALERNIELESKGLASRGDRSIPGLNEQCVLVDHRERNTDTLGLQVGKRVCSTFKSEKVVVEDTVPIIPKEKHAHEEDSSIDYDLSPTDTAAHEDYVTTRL
- ASSAY_COMMENT: calcium entry via TRPC4 opening agents – cell-based, HEK293 TRPC4/mu-opioid, Fluo-4 calcium, dose response (AID 434937)
- Format: functional
Activity calls are given as the source filed them.
READOUT_KIND: EC50

These recorded examples may help you get a feel for the data.
CN(C)C(CNC(=O)Cc1cccc(C(F)(F)F)c1)c1ccco1 (stereo unspecified)	0.335 µM (active)
CC1CCN(CCCNS(=O)(=O)c2cc(Br)cc3c2N(C(=O)C2CC2)CC3)CC1	0.299 µM (active)
CCOC(=O)C1(CCc2ccccc2)CCN(Cc2ccc(OC)cc2)CC1	0.267 µM (active)
Cc1ccc(C(=O)NC(=S)NNC(=O)c2ccccc2)cc1	1.33 µM (active)
COc1ccc(CCN(C)CCN2C(=O)c3ccccc3C2=O)cc1OC	1.06 µM (active)

# input for lookup
Short answer on Short transient receptor potential channel 4 (Mus musculus) for COc1ccc(/N=C(\C)C2=C(O)C(=O)N(CCO)C2c2ccc(Br)cc2)cc1 (stereo unspecified) , EC50: 5.96 µM (active)

----------
- ASSAY_COMMENT: Luminescence Cell-Based Dose Confirmation HTS to Identify Inhibitors of Platelet Dense Granule Release. [Related pubchem assays: 1663 (Primary HTS), 1678 (Summary of Project)]
- Assay type: functional
Calls of active or inactive are those of the source.
READOUT_KIND: EC50

COC(=O)/C=C\C(=O)Nc1cccc([N+](=O)[O-])c1	9.34 µM (active)
CSc1ccc(/C=N/NC(=O)c2cc(O)cc(O)c2)cc1	10 µM (active)
Cc1ccc(C(=O)ONc2ccc(N=O)cc2)cc1	2.69 µM (active)

Let's switch to this molecule now.
EC50 reported for this molecule Oc1ccc(/C=C/c2ccc3ccccc3n2)cc1 : 0.235 µM (active)
